Target: T1, PD-L1-Fc (PD-L1 antigen protein, extracellular region Met1-Thr239 fused to human Fc) (human, UniProt Q9NZQ7 19-239)
T1 construct: range 1-239; the secreted protein lacks it; also called PD-L1-Fc antigen; pCEP4-PDL1-Fc product; not shown: human Fc fragment of the pCEP4-Fc vector
T1 sequence (Q9NZQ7 19-239): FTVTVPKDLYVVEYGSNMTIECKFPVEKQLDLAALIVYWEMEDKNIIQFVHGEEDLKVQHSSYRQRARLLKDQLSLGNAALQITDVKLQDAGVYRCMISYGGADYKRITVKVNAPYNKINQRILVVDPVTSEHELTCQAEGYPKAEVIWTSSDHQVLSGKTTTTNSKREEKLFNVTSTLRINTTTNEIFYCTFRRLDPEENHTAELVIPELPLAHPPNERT
Test: BLI (Octet); PD-1-coated biosensor dipped in a mix of PD-L1 antigen protein and antibody; KD from the Octet software
MEASUREMENT NAME: pKd
The scale used: pKd is minus the common logarithm of the concentration in molar units.

BINDER	MEASURED RESULT
KL001-18 (antibody, V domains shown) VH: QVQLVESGAEVKKPGSSVKVSCKASGGTFSSYAISWVRQAPGQGLEWMGRIIPILGIANYAQKFQGRVTVTADKSTSTAYMELSSLRSEDTAVYYCARSGYGYAYGSFDYWGQGTLVTVSS VL: QLVLTQPPSVSGAPGQTVTISCTGQTIGAGYDVHWYQQLPGAAPKLLIYGNLNRPSGVPDRFSGSKSGTSASLAITDLQAEDEADYYCQSYDSTEGVVFGGGTKLTVL	10.79

# lookup: pKd of KL001-26 (antibody, V domains shown) VH: QVQLVESGAEVKKPGSSVKVSCKASGGTFSSYAISWVRQAPGQGLEWMGRIIPILGIANYAQKFQGRVTVTADKSTSTAYMELSSLRSEDTAVYYCARSGYGYAYGSFDYWGQGTLVTVSS VL: QLVLTQPPSVSGAPGQTVTISCTGPTIGQGYDVHWYQQLPGAAPKLLIYGNLNRPSGVPDRFSGSKSGTSASLAITDLQAEDEADYYCQSYDSRLGVVFGGGTKLTVL
10.24
